# reported melting point; entries follow

// known answers, use as guide
[
  {
    "molecule": "Cc1nc2ccc(F)cc2c(=O)n1CCn1c(C)nc2ccc(F)cc2c1=O [Compound 5d]",
    "melting point": "219 to 221 °C"
  },
  {
    "molecule": "Cc1nc2ccc(F)cc2c(=O)n1-c1ccc(-n2c(C)nc3ccc(F)cc3c2=O)cc1 [Compound 6d]",
    "melting point": "269 to 272 °C"
  },
  {
    "molecule": "Cc1ccc2nc(C)n(-c3ccc(S(=O)(=O)c4ccc(-n5c(C)nc6ccc(C)cc6c5=O)cc4)cc3)c(=O)c2c1 [Compound 7b]",
    "melting point": "310 to 313 °C"
  },
  {
    "molecule": "Cc1nc2ccc([N+](=O)[O-])cc2c(=O)n1[C@H]1CC[C@H](n2c(C)nc3ccc([N+](=O)[O-])cc3c2=O)CC1 [Compound 3e]",
    "melting point": "301 to 304 °C"
  },
  {
    "molecule": "Cc1nc2ccccc2c(=O)n1[C@H]1CC[C@H](n2c(C)nc3ccccc3c2=O)CC1 [Compound 3a]",
    "melting point": "273 to 275 °C"
  }
]

// query melting point value for entry Cc1nc2ccccc2c(=O)n1CCn1c(C)nc2ccccc2c1=O [Compound 5a]
190 to 192 °C

Continue with Cc1nc2ccccc2c(=O)n1-c1cccc(-n2c(C)nc3ccccc3c2=O)c1 [Compound 11]
236 to 238 °C

Continue with Cc1nc2ccc([N+](=O)[O-])cc2c(=O)n1-c1ccc(S(=O)(=O)c2ccc(-n3c(C)nc4ccc([N+](=O)[O-])cc4c3=O)cc2)cc1 [Compound 7e]
316 to 319 °C

Continue with Cc1ccc2nc(C)n(CCn3c(C)nc4ccc(C)cc4c3=O)c(=O)c2c1 [Compound 5b]
211 to 212 °C

Continue with Cc1nc2ccc([N+](=O)[O-])cc2c(=O)n1Cc1ccc(Cn2c(C)nc3ccc([N+](=O)[O-])cc3c2=O)cc1 [Compound 4e]
350 to 353 °C

Continue with Cc1nc2ccc(F)cc2c(=O)n1[C@H]1CC[C@H](n2c(C)nc3ccc(F)cc3c2=O)CC1 [Compound 3d]
262 to 264 °C

Continue with Cc1nc2ccc(Cl)cc2c(=O)n1-c1ccc(-n2c(C)nc3ccc(Cl)cc3c2=O)cc1 [Compound 6c]
287 to 290 °C

Continue with Cc1ccc2nc(C)n([C@H]3CC[C@H](n4c(C)nc5ccc(C)cc5c4=O)CC3)c(=O)c2c1 [Compound 3b]
280 to 281 °C

----------
Test system: A549 (lung cancer) cell line
test: MTT cytotoxicity assay, A549
experimental setup: read-out: Cells viability (%) A549, 10 μM; 10 μM, 48 h, triplicate, mean ± s.e.m.
readout label: inhibition (%)
Please reply with the bare figure in % and do not write the unit itself.

// known answers, use as guide
[
  {
    "compound": "Cc1ccc2nc(C)n(Cc3ccc(Cn4c(C)nc5ccc(C)cc5c4=O)cc3)c(=O)c2c1 [Compound 4b]",
    "readout label": "inhibition",
    "readout units": "%",
    "obs value": 76
  },
  {
    "compound": "Cc1nc2ccc([N+](=O)[O-])cc2c(=O)n1-c1ccc(S(=O)(=O)c2ccc(-n3c(C)nc4ccc([N+](=O)[O-])cc4c3=O)cc2)cc1 [Compound 7e]",
    "readout label": "inhibition",
    "readout units": "%",
    "obs value": 96
  },
  {
    "compound": "Cc1nc2ccc(Cl)cc2c(=O)n1CCn1c(C)nc2ccc(Cl)cc2c1=O [Compound 5c]",
    "readout label": "inhibition",
    "readout units": "%",
    "obs value": 61.9
  },
  {
    "compound": "Cc1nc2ccc(F)cc2c(=O)n1Cc1ccc(Cn2c(C)nc3ccc(F)cc3c2=O)cc1 [Compound 4d]",
    "readout label": "inhibition",
    "readout units": "%",
    "obs value": 94.3
  },
  {
    "compound": "Cc1nc2ccc(Cl)cc2c(=O)n1[C@H]1CC[C@H](n2c(C)nc3ccc(Cl)cc3c2=O)CC1 [Compound 3c]",
    "readout label": "inhibition",
    "readout units": "%",
    "obs value": 61.1
  }
]

// query inhibition value for entry Cc1ccc2nc(C)n(CCn3c(C)nc4ccc(C)cc4c3=O)c(=O)c2c1 [Compound 5b]
40

Continue with Cc1nc2ccccc2c(=O)n1-c1ccc(-n2c(C)nc3ccccc3c2=O)cc1 [Compound 6a]
54.5

Continue with Cc1nc2ccc(F)cc2c(=O)n1CCn1c(C)nc2ccc(F)cc2c1=O [Compound 5d]
54.5

Continue with Cc1nc2ccccc2c(=O)n1CCn1c(C)nc2ccccc2c1=O [Compound 5a]
32.4

Continue with Cc1nc2ccccc2c(=O)n1-c1ccc(S(=O)(=O)c2ccc(-n3c(C)nc4ccccc4c3=O)cc2)cc1 [Compound 7a]
82.7

Continue with Cc1nc2ccc([N+](=O)[O-])cc2c(=O)n1CCn1c(C)nc2ccc([N+](=O)[O-])cc2c1=O [Compound 5e]
91.5
